Catalogue of residual bioluminescent signal readings, one per entry.
Test system: Renilla luciferase (RLuc)
protocol_summary: residual bioluminescent signal relative to negative (DMSO) control; higher = less interference (more residual luciferase signal)
condition_notes: metal salt concentration 1 mM; HEPES conditions (100 mM HEPES, 0.05% BSA, 0.3 M sodium ascorbate, pH 7.5)

Below are worked cases with known answers.
O=[N+]([O-])[O-].O=[N+]([O-])[O-].[Ca+2] [calcium nitrate] :: 92.3%
O=[N+]([O-])[O-].O=[N+]([O-])[O-].[Zn+2] [zinc nitrate] :: 11.8%
O=[N+]([O-])[O-].[K+] [potassium nitrate] :: 104%
O=[N+]([O-])[O-].O=[N+]([O-])[O-].O=[N+]([O-])[O-].[Ga+3] [gallium(III) nitrate] :: 10.6%
O=[N+]([O-])[O-].O=[N+]([O-])[O-].[Cu+2] [copper(II) nitrate] :: 0.774%
O=[N+]([O-])[O-].O=[N+]([O-])[O-].[Pb+2] [lead(II) nitrate] :: 42.9%

We now examine a further molecule.
Complete the entry with residual bioluminescent signal for O=[N+]([O-])[O-].O=[N+]([O-])[O-].[Cd+2] [cadmium nitrate] 11.8%
